- study.target: human VR1 (Homo sapiens, UniProt Q8NER1)
- Construct: expressed in transfected cells; host or cells: HEK293
- Sequence (Q8NER1 whole entry): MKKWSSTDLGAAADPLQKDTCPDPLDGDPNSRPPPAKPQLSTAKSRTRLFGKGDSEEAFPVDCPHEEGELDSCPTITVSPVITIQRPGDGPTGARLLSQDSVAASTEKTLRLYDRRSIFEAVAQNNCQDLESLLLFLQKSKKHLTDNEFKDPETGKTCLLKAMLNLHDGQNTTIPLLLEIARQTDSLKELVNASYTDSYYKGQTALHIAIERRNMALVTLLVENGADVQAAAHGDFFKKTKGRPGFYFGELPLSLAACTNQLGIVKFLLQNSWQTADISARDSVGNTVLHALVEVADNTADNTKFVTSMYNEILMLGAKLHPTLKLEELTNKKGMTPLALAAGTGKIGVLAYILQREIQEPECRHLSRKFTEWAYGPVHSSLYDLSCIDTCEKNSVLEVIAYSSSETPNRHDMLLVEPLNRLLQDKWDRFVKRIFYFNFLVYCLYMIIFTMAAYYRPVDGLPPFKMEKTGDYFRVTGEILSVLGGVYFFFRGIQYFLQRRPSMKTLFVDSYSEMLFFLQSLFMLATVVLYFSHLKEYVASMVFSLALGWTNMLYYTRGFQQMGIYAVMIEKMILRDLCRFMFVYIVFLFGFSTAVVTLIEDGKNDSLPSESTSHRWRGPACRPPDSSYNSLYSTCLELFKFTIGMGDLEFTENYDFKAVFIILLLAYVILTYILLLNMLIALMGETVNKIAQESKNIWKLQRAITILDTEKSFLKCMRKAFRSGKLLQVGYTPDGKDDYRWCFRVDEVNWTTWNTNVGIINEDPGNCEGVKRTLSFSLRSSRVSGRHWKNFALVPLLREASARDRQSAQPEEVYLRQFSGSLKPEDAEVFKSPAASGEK
- assay.details: Human VR1 functional assay (FLIPR intracellular Ca2+)
- Assay type: cell-based
- assay.conditions: inhibition of capsaicin response, 5 μM; read-out: h % I (5 μM)
measured.metric: inhibition at 5 µM (%)
Number only, in %; omit the unit.

Cc1cc(NC(=O)CCc2ccc(C(C)(C)C)cc2)cnc1-c1ccc(O)cc1 [Cpd 162] | 99
O=C(CCc1ccc(Cl)cc1)Nc1ccc(-c2ccncc2)c(C(F)(F)F)c1 [Cpd 230] | 101
O=C(CCc1ccc(C(F)(F)F)cc1)Nc1cnc(-c2ccncc2)c(C(F)(F)F)c1 [Cpd 255] | 100
O=C(CCc1ccc(C(F)(F)F)cc1)Nc1ccc(-n2cnc(Cl)c2Cl)cc1 [Cpd 263] | 67

Ask: # input compound: Cc1cc(NC(=O)CCc2ccc(C(C)(C)C)cc2)ccc1-c1ccccc1O [Cpd 97] ; wanted: its inhibition at 5 µM
Result: 104

Ask: Endpoint output: inhibition at 5 µM of O=C(CCc1ccc(C(F)(F)F)cc1)Nc1cnc(-c2cccc(O)c2)c(C(F)(F)F)c1 [Cpd 210] . Value?
Result: 100

// provenance: patent US20060223837A1
